# tgt: full length SGK1 (Homo sapiens)
# Construct: 125 μM full length SGK1 (Life Technologies Part #PR7358A); purchased Life Technologies PR7358A
# assay.summary: SGK1 inhibition Assay A (Caliper LabChip electrophoretic separation of fluorescent peptide substrate and phosphorylated product)
# Format: biochemical
# setup.conditions: Assay A; 20 μM ATP, 40 min incubation; read-out: SGK1 IC50
Counter-ions that a name gives are not always drawn.
Field: IC50. Provide a value for each of the compounds that follow.
The response must be a number in nM with no trailing unit.

Look up IC50: Cc1cc(-c2cc(N3CCC[C@@H](NC(=O)c4sc(Cl)cc4OCCN(C)C)C3)c3c(N)ncnn23)cn(CC(C)C)c1=O
103

Look up IC50: N#Cc1ccc(-c2cc(N3CCC[C@@H](NC(=O)c4sc(C(F)F)cc4N4CCOCC4)C3)c3c(N)ncnn23)cn1
15

Look up IC50: CC(=O)N1CC=C(c2cc(N3CCC[C@@H](NC(=O)c4sc(Cl)cc4OC4CCN(C5COC5)CC4)C3)c3c(N)ncnn23)C1
10

Look up IC50: CC(=O)N1CC=C(c2cc(N3CCCC(NC(=O)c4sc(C(F)F)cc4OC4CCN(C(C)C)CC4)C3)c3c(N)ncnn23)C1 (stereo not shown)
14

Look up IC50: CC(=O)N1CC=C(c2cc(N3CCC[C@@H](NC(=O)c4[nH]c5ccccc5c4OCCN(C)C)C3)c3c(N)ncnn23)C1
12

Look up IC50: COC(=O)N1CC=C(c2cc(N3CCC[C@@H](NC(=O)c4sc(C5CC5)cc4OCCN(C)C)C3)c3c(N)ncnn23)C1
1

Look up IC50: COc1c(-c2cc(N3CCC[C@@H](NC(=O)c4ccc(Cl)s4)C3)c3c(N)ncnn23)ccnc1F [Example 227, TFA]
18

###

# tgt: full length SGK1 (Homo sapiens)
# Construct: 125 μM full length SGK1 (Life Technologies Part #PR7358A); purchased Life Technologies PR7358A
# Sequence (O00141 1-431): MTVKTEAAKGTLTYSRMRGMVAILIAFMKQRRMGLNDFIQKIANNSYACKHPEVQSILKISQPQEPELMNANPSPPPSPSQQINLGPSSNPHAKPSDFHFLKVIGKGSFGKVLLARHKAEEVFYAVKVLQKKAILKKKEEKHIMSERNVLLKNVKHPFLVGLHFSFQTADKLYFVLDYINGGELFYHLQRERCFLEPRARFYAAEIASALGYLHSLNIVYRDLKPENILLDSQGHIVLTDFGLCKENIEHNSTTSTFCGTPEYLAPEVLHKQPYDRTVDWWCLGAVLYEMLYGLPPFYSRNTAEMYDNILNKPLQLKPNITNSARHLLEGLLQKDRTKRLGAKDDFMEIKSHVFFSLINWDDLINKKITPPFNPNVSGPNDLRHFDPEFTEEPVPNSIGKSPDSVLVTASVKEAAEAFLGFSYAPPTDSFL
# assay.summary: SGK1 inhibition Assay A (Caliper LabChip electrophoretic separation of fluorescent peptide substrate and phosphorylated product)
# Type: biochemical
# setup.conditions: Assay A; 20 μM ATP, 40 min incubation; read-out: SGK1 IC50
pIC50: −log10 of the molar value. Counter-ions that a name gives are not always drawn.
Each entry gets label 0 if its pIC50 stays under 8, and label 1 if its pIC50 is 8 or above.

hey, is pIC50 for this one >= 8? COC(=O)N1CC=C(c2cc(N3CCC[C@@H](NC(=O)c4sc(C(F)F)cc4OCCN)C3)c3c(N)ncnn23)C1
label 1

hey, is pIC50 for this one >= 8? COC(=O)N1CC=C(c2cc(N3CCC[C@@H](NC(=O)c4sc(Cl)cc4OCCN4CCOCC4)C3)c3c(N)ncnn23)C1 [Example 185, TFA]
label 0

hey, is pIC50 for this one >= 8? CNC(=O)c1ccc(-c2cc(N3CCC[C@@H](NC(=O)c4ccc(Cl)s4)C3)c3c(N)ncnn23)cn1
label 1

hey, is pIC50 for this one >= 8? CC(=O)N1CC=C(c2cc(N3CCC[C@@H](NC(=O)c4sc(Cl)cc4O[C@@H]4C[C@H]5CC[C@@H](C4)N5C)C3)c3c(N)ncnn23)C1
label 1

hey, is pIC50 for this one >= 8? Nc1ncnn2c(-c3ccn[nH]3)cc(N3CCC[C@@H](NC(=O)c4ccc(Cl)s4)C3)c12
label 1

hey, is pIC50 for this one >= 8? CC(=O)N1CC=C(c2cc(N3CCC[C@@H](NC(=O)c4ccc5ncsc5c4)C3)c3c(N)ncnn23)C1
label 0
